Cited source: patent US8017612B2

# System: HCV polymerase (NS5B) type 1a (Hepatitis C virus genotype 1a, UniProt P26664)
# Construct: made in house; host or cells: Escherichia coli (by the 'similar method' of the 1b enzyme)
# Test: Assay of enzyme (HCV polymerase) inhibitory activity, type 1a enzyme
# Format: biochemical, HCV type 1a (cloned from the blood of patients)
# Study Conditions: HCV polymerase inhibitory activity IC50, 1a, type 1a enzyme
Endpoint: IC50

Example entries begin here.
CCC(F)(F)c1ccc(CNC(=O)[C@H]2CN(c3cnc4cnccc4n3)CCN2S(=O)(=O)c2ccc(-c3ccccc3)cc2)cc1 [Example 727]: < 100 nM
NC(=O)c1n[nH]c(=O)c2sc(N3CCN(S(=O)(=O)c4ccc(OC(F)(F)F)cc4)[C@@H](C(=O)NCc4ccc(OC(F)(F)F)cc4)C3)nc12 [Example 876]: < 100 nM

Shifting focus to the molecule that follows.
(Q) Item O=C(NCc1ccc(OC(F)F)cc1)[C@H]1CN(c2nc3nc(Cl)ncc3s2)CCN1S(=O)(=O)c1ccc(C(F)(F)F)cc1 [Example 968] has what recorded IC50?
(A) < 100 nM

###

# System: HCV polymerase (NS5B) type 1a (Hepatitis C virus genotype 1a)
# Construct: made in house; host or cells: Escherichia coli (by the 'similar method' of the 1b enzyme)
# Test: Assay of enzyme (HCV polymerase) inhibitory activity, type 1a enzyme
# Type: biochemical, HCV type 1a (cloned from the blood of patients)
# Study Conditions: HCV polymerase inhibitory activity (IC50), 1a, type 1a enzyme 1.5 μg/ml, 25° C., 60 min
Endpoint: IC50

Sample answers from the record:
CC(C)(C)c1ccc(CNC(=O)[C@H]2CN(c3cnc(CO)c(N)n3)CCN2S(=O)(=O)c2ccc(OC(F)(F)F)cc2)cc1: < 100 nM
CCOC(=O)Cc1nnnn1CC(=O)N1CCN(S(=O)(=O)c2ccc(C(F)(F)F)cc2)[C@@H](C(=O)NCc2ccc(C(C)C)cc2)C1: 100 to 1000 nM
CC(=O)N1CCN(S(=O)(=O)c2ccc(Br)cc2F)[C@@H](C(=O)NCc2ccc(C(C)C)cc2)C1: 100 to 1000 nM
CCOC(=O)COc1cccc(NC(=O)N2CCN(S(=O)(=O)c3ccc(C(F)(F)F)cc3)[C@@H](C(=O)NCc3ccc(C(C)C)cc3)C2)c1: 100 to 1000 nM
CC(=O)N1CCN(S(=O)(=O)c2ccc3c(c2)CCC3)[C@@H](C(=O)NCc2ccc(C(C)C)cc2)C1: 100 to 1000 nM

Turning now to a further compound:
(Q) For the compound shown here, CC(C)c1ccc(CNC(=O)[C@H]2CN(c3nc4ccccc4s3)CCN2S(=O)(=O)c2ccc(C(F)(F)F)cc2)cc1 , give the reported IC50.
(A) 100 to 1000 nM

###

The entries below are paired with their reported IC50.
# System: HCV polymerase (NS5B) type 1a (Hepatitis C virus genotype 1a)
# Construct: made in house; host or cells: Escherichia coli (by the 'similar method' of the 1b enzyme)
# Test: Assay of enzyme (HCV polymerase) inhibitory activity, type 1a enzyme
# Assay type: biochemical, HCV type 1a (cloned from the blood of patients)
# Study Conditions: HCV polymerase inhibitory activity IC50, 1a, type 1a enzyme

Example entries begin here.
CCC(F)(F)c1ccc(CNC(=O)[C@H]2CN(c3cnc4cncnc4n3)CCN2S(=O)(=O)c2ccc(-c3cccc(OCC(=O)O)c3)cc2)cc1 [Example 732]: < 100 nM
CCN(CC)c1nc(Br)nc2nc(N3CCN(S(=O)(=O)c4ccc(C(F)(F)F)cc4)[C@@H](C(=O)NCc4ccc(OC(F)(F)F)cc4)C3)sc12 [Example 974]: > 1000 nM

(Q) Using the record for CCCN1CCC(CNC(=O)[C@H]2CN(C(C)=O)CCN2S(=O)(=O)c2ccc(OC(F)(F)F)cc2)CC1 [Example 681] , report its IC50.
(A) > 1000 nM

(Q) Same again, this time with CC(=O)N1CCN(S(=O)(=O)c2ccc(OC(F)(F)F)cc2)[C@@H](C(=O)NCCc2cccc(O)c2)C1 [Example 674]
(A) > 1000 nM

(Q) One more compound: CCCc1ccc(CNC(=O)[C@H]2CN(C(=O)Nc3ccccc3O)CCN2S(=O)(=O)c2ccc(OC(F)(F)F)cc2)cc1 [Example 834]
(A) 100 to 1000 nM

(Q) And what about the compound CCC(F)(F)c1ccc(CNC(=O)[C@H]2CN(C(=O)Cn3nnc(N)n3)CCN2S(=O)(=O)c2ccc(OC(F)(F)F)cc2)cc1 [Example 1096] ?
(A) < 100 nM

###

# System: HCV polymerase (NS5B) type 1b (Hepatitis C virus genotype 1b, UniProt P26663)
# Construct: a region encoding NS5B (J Virol 1991 March, 65(3), 1105-13, 544 amino acids after deletion of 47 amino acids on the C-terminal); 6xHis (C); made in house; host or cells: Escherichia coli
# Test: Assay of enzyme (HCV polymerase) inhibitory activity, type 1b enzyme
# Format: biochemical, HCV BK strain (type 1b)
# Study Conditions: HCV polymerase inhibitory activity IC50, 1b, type 1b enzyme
Endpoint: IC50

CCC(F)(F)c1ccc(CNC(=O)[C@H]2CN(c3nc4cn[nH]c(=O)c4s3)CCN2S(=O)(=O)c2ccc(C(F)(F)F)cc2)cc1: < 100 nM
COCCn1ncc2sc(N3CCN(S(=O)(=O)c4ccc(OC(F)(F)F)cc4)[C@@H](C(=O)NCc4ccc(OC(F)(F)F)cc4)C3)nc2c1=O: < 100 nM

Proceeding to the next compound to report its IC50.
(Q) Which IC50 is listed for CCC(F)(F)c1ccc(CNC(=O)[C@H]2CN(c3nc4nc(Cl)ncc4s3)CCN2S(=O)(=O)c2ccc(OC(F)(F)F)cc2)cc1 ?
(A) < 100 nM

###

# System: HCV polymerase (NS5B) type 1b (Hepatitis C virus genotype 1b)
# Construct: a region encoding NS5B (J Virol 1991 March, 65(3), 1105-13, 544 amino acids after deletion of 47 amino acids on the C-terminal); 6xHis (C); made in house; host or cells: Escherichia coli
# Test: Assay of enzyme (HCV polymerase) inhibitory activity, type 1b enzyme
# Format: biochemical, HCV BK strain (type 1b)
# Study Conditions: HCV polymerase inhibitory activity (IC50), 1b, type 1b enzyme 0.5 μg/ml, 25° C., 60 min
pIC50: −log10 of the molar value.
Endpoint: pIC50

Known results for molecules:
Cc1nc(N2CCN(S(=O)(=O)c3ccc(OC(F)(F)F)cc3)[C@@H](C(=O)NCCc3ccccc3)C2)sc1C(=O)O: < 6.00
CCCN(C)c1ccc(CNC(=O)C2CN(C(C)=O)CCN2S(=O)(=O)c2ccc(C(C)C)cc2)cc1 (stereo not shown): 6.00 to 7.00
CC(C)c1ccc(S(=O)(=O)N2CCN(c3nc(-c4ccccc4)cs3)CC2C(=O)NCc2ccc(C(F)(F)F)cc2)cc1 (stereo not shown): < 6.00

Now consider a different molecule.
(Q) # get_value(readout='pIC50', item= COC(=O)CCC(=O)NCC(=O)N1CCN(S(=O)(=O)c2ccc(C(F)(F)F)cc2)[C@@H](C(=O)NCc2ccc(C(C)C)cc2)C1 )
(A) 6.00 to 7.00

###

Here, each record is paired with measured IC50 data.
# System: HCV polymerase (NS5B) type 1b (Hepatitis C virus genotype 1b, UniProt P26663)
# Construct: a region encoding NS5B (J Virol 1991 March, 65(3), 1105-13, 544 amino acids after deletion of 47 amino acids on the C-terminal); 6xHis (C); made in house; host or cells: Escherichia coli
# Test: Assay of enzyme (HCV polymerase) inhibitory activity, type 1b enzyme
# Assay type: biochemical, HCV BK strain (type 1b)
# Study Conditions: HCV polymerase inhibitory activity IC50, 1b, type 1b enzyme
# Experimental: The evaluation of the HCV polymerase inhibitory activity of the compound of the present invention is explained in the following. This polymerase is an enzyme coded for by the non-structural protein region called NS5B on the genome RNA of HCV. i) Preparation of Enzyme (HCV Polymerase) […] The HCV polymerase inhibitory activity (IC50) of the compound of the present invention was calculated from the values of radioactivity of the enzyme reaction with and without the test substance. […]

Solved cases below.
O=C(NCc1ccc(OC(F)(F)F)cc1)[C@H]1CN(c2cnc3cnccc3n2)CCN1S(=O)(=O)c1ccc(Cl)cc1: < 0.1 µM
O=C(NCc1ccc(OC(F)(F)F)cc1)[C@H]1CN(c2nc3nc(C(F)(F)F)ncc3s2)CCN1S(=O)(=O)c1ccc(OC(F)F)cc1: < 0.1 µM
O=C(NCc1ccc(OC(F)(F)F)cc1)[C@H]1CN(c2nc3cnnc(Cl)c3s2)CCN1S(=O)(=O)c1ccc(OC(F)(F)F)cc1: < 0.1 µM
Cc1cc(=O)nc2sc(N3CCN(S(=O)(=O)c4ccc(C(F)(F)F)cc4)[C@@H](C(=O)NCc4ccc(OC(F)F)cc4)C3)nn12: < 0.1 µM
CCCc1ccc(CNC(=O)[C@H]2CN(C(=O)Nc3ccccc3C(=O)OC)CCN2S(=O)(=O)c2ccc(OC(F)(F)F)cc2)cc1: > 1 µM

API: the following record is the query input.
(Q) What is its IC50 for HCV polymerase (NS5B) type 1b (Hepatitis C virus genotype 1b, UniProt P26663)? Entry: CCCc1nc(C)c(CNC(=O)[C@H]2CN(c3nc4cn[nH]c(=O)c4s3)CCN2S(=O)(=O)c2ccc(OC(F)(F)F)cc2)s1
(A) < 0.1 µM
